# experimental details: Quantitative High-Throughput drug screen in 47 multiple myeloma cell lines against the NCATS MIPE library collection: OCIMY7_PLB cell viability assay (AID 1918987); further: nearly all actives have a fitted effect of over 65% in size
# measurement context: OCI-MY7 myeloma viability, CellTiter-Glo ATP, 48 h; series mostly up to 45.8 µM
Results filed as inconclusive are left out. Calls of active or inactive are those of the source. The call rests on the fitted dose curve; in most records, active means well fitted cell-killing curve with a large enough effect; inconclusive means small, poorly fitted or top-dose-only effect, or effect the other way; inactive means no such curve, though single readings can be large or run the other way.
Result category, one only: class 1 = active, class 0 = inactive

Example cases with answers are listed next.
• CC(C)(O)c1cc2nc(-c3cnc(N)nc3)nc(N3CCOCC3)c2s1 = class 1
• Nc1cccc(-c2cc3c(Oc4cccc(O)c4)ncnc3[nH]2)c1 = class 1
• CN1CCN(c2cc(C(=O)Nc3ccc4c(c3)-c3c(c(C(N)=O)nn3-c3ccc(F)cc3)CC4)c(Cl)cn2)CC1 = class 1
• O=c1[nH]nc(Sc2ncc([N+](=O)[O-])s2)n1-c1ccc2c(c1)OCCO2 = class 1
• COc1cc(=C2C=c3ccccc3=N2)[nH]c1=Cc1[nH]c(C)cc1C = class 1

I'd appreciate the recorded outcome for CCOC(=O)C1=C(C)NC2=C(C(=O)CC(C)(C)C2)C1c1ccc(-c2ccccc2)cc1 (configuration not stated) from this test.
class 1

FYI, the data here is from PubChem BioAssay (NCATS).
